Recorded viscosity, one value per entry.
Conditions: 293.15 K; 101.33 kPa; Liquid; Capillary tube (Ostwald / Ubbelohde) method
Readout Name: viscosity (mPa·s)

> print(dat)
                                   compound  reported.result
1  CCCCCCCCCCCCCC[P+](CCCC)(CCCC)CCCC.O=S(=O)([O-])C(F)(F)C(F)C(F)(F)F             1103
2  CCCC[n+]1ccn(C)c1.O=S(=O)([O-])C(F)(F)C(F)C(F)(F)F (stereo not given)              378
3  CCCCn1cc[n+](C)c1.O=S(=O)([O-])C(F)(F)C(F)OC(F)(F)C(F)(F)F (stereo not given)              444
4  CCCCCCCCCCCCCC[P+](CCCCCC)(CCCCCC)CCCCCC.O=S(=O)([O-])C(F)(F)C(F)OC(F)(F)C(F)(F)F              625
5  CCCCn1cc[n+](C)c1.O=S(=O)([O-])C(F)(F)C(F)OC(F)(F)F (stereo not given)              298
